# assay_system: HLA-A*02:03
# assay: IEDB peptide-MHC binding, purified MHC/direct/fluorescence; filed as Kd, often an IC50 or EC50 that approximates it; bounds were set here for any values at or beyond the usual limits of such assays
# condition_label: source organism: Zaire ebolavirus
pKd: −log10 of the molar value.
Consider the following sequences; for each one, report its pKd.

sequence_content: AFHQLVQVI
assay_system: HLA-A*02:03
pKd: ≤ 4.70

# input for lookup
What does the data say about its pKd? Entry: TAAIMLASY
≤ 4.70

###

# assay_system: HLA-B*40:01
# assay: IEDB peptide-MHC binding, purified MHC/direct/fluorescence; filed as Kd, often an IC50 or EC50 that approximates it; bounds were set here for any values at or beyond the usual limits of such assays
# condition_label: source organism: Cryptosporidium parvum
property_name: Kd

Entry RLLRMNNEN : reported Kd = ?
≥ 20 µM

###

# assay_system: HLA-B*07:02
# assay: IEDB peptide-MHC binding, purified MHC/direct/fluorescence; filed as Kd, often an IC50 or EC50 that approximates it; bounds were set here for any values at or beyond the usual limits of such assays
# condition_label: source organism: Brucella abortus
property_name: Kd

Given the entry RFRCVGPAP , report its measured Kd.
≥ 20 µM

###

# assay_system: HLA-B*57:01
# assay: IEDB peptide-MHC binding, purified MHC/competitive/fluorescence; filed as Kd, often an IC50 or EC50 that approximates it; bounds were set here for any values at or beyond the usual limits of such assays
# condition_label: source organism: Listeria monocytogenes J0161
property_name: Kd

Which value of Kd has been reported for YNAKRIETV in the records?
≥ 20 µM

###

# assay_system: HLA-A*02:50
# assay: IEDB peptide-MHC binding, purified MHC/competitive/fluorescence; filed as Kd, often an IC50 or EC50 that approximates it; bounds were set here for any values at or beyond the usual limits of such assays
# condition_label: source organism: Yersinia pestis Nepal516
property_name: Kd (nM)
Give bare numbers, in nM.

Which Kd reading was recorded for the sequence AMQDPNPEV ?
1.1

###

# assay_system: HLA-B*07:02
# assay: IEDB peptide-MHC binding, purified MHC/competitive/radioactivity; filed as Kd, often an IC50 or EC50 that approximates it; bounds were set here for any values at or beyond the usual limits of such assays
# condition_label: source organism: Vaccinia virus WR
pKd: −log10 of the molar value.
Is pKd at least 6? Then 1.0. If not, 0.0.

Is pKd at least 6? Consider ISIIVLFQR
0.0

Continue with IPKFKVTGSY
0.0

Also, KQYIVATLMK please.
0.0

Continue with FPSTQRDYY
0.0

One more sequence: IPYLRNYMVI
1.0

Subsequent entry: EPISILDRI
0.0

What do we get for TPNYMKLLVY ?
0.0

Repeat with YPTNDIPSLF
0.0

Then FPGLYGASI ?
1.0

Request: APGSPTNLEF
1.0

Now consider WPNNCGWKIY and answer again.
0.0

###

# assay_system: HLA-A*02:03
# assay: IEDB peptide-MHC binding, purified MHC/competitive/radioactivity; filed as Kd, often an IC50 or EC50 that approximates it; bounds were set here for any values at or beyond the usual limits of such assays
# condition_label: source organism: Dengue virus 3 Martinique/1243/1999
property_name: Kd

Data request, read-out Kd, for NLKYTVIITV
9.29 nM
